# assayedSystem: human recombinant FAAH (Homo sapiens, UniProt O00519)
# Sequence (O00519 1-579): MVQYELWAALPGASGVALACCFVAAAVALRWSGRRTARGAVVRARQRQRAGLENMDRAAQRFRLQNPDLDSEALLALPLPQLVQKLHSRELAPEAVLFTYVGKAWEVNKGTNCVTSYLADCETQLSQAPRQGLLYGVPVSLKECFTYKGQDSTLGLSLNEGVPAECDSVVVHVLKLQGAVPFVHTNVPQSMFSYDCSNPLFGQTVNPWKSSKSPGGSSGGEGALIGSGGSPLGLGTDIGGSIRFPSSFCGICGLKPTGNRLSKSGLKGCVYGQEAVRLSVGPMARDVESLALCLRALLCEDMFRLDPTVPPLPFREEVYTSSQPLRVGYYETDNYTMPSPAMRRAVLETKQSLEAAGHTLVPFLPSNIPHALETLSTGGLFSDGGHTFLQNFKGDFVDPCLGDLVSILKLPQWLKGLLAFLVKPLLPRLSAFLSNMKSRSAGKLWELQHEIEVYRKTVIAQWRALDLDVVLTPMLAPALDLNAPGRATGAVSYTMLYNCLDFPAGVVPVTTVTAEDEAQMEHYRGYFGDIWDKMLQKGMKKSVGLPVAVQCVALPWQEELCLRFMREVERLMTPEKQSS
# assayNotes: FAAH inhibition enzymatic assay, fluorescent substrate Arachidonoyl-AMC, 30 minute incubation
# experimentalSetup: T = 30 min (30 minute incubation); geometric mean of 2-4 determinations unless otherwise indicated
measuredEndpoint: IC50 (µM)

compound	IC50, µM
O=C(OC(C(F)(F)F)C(F)(F)CO)N1C[C@@H]2[C@H](C1)[C@H]2c1ccn(-c2ccc(F)cc2)n1 (some centres unmarked) [Example 39]	6.01

P. CCc1cccc(S(=O)(=O)N2CCOC3(CCN(C(=O)O[C@H](CO)C(F)(F)F)CC3)C2)c1 [Example 77]
Q. CC(C)Oc1ccc(S(=O)(=O)N2CCOC3(CCN(C(=O)O[C@H](CO)C(F)(F)F)CC3)C2)cc1 [Example 78]
Endpoint returns whichever of P and Q has the numerically higher IC50. Bench note: the answer is the label of the chosen record.
P

P. O=C(O[C@H](CO)C(F)(F)F)N1CCC(Oc2ncc(C(F)(F)F)cc2Cl)CC1 [Example 63]
Q. CN([C@H]1COC2(CCN(C(=O)O[C@H](CO)C(F)(F)F)CC2)C1)S(=O)(=O)c1cnn(C)c1 [Example 138]
Between P and Q , whose measured IC50 reads higher? State your choice using its label.
Q

---

# assayedSystem: human recombinant Monoacylglycerol Lipase (Homo sapiens)
# Sequence (Q99685 1-303): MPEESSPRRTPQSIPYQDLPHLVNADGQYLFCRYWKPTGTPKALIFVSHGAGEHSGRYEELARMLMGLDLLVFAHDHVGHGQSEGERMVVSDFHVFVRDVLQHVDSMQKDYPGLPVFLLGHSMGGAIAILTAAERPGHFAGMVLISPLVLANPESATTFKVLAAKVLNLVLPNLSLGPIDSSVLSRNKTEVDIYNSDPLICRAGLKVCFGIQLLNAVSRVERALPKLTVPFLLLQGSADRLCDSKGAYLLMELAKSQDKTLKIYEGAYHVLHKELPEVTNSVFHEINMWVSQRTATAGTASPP
# assayNotes: MAGL inhibition enzymatic assay, fluorogenic substrate 7-HCA, IC50 at T=0 min or after 30 minute incubation (T=30 min)
# Type: biochemical
# experimentalSetup: T = 30 min (30 minute incubation); geometric mean of 2-4 determinations unless otherwise indicated; read-out: MAGL (T = 30 min) IC50
measuredEndpoint: IC50 (µM)

The following molecules have reported results that may help.
molecule	numericValue
Cc1cnc(N2CCOC3(CCN(C(=O)O[C@H](CO)C(F)(F)F)CC3)C2)nc1	0.083
O=C(O[C@H](CO)C(F)(F)F)N1CCC2(CC1)CN(S(=O)(=O)NCc1ccccn1)CCO2	0.052
O=C(O[C@H](CO)C(F)(F)F)N1CCC2(CC1)CCN(C(=O)C1CCCC1)C2	0.01
O=C(O[C@H](CO)C(F)(F)F)N1CCC2(CC1)C[C@H](NS(=O)(=O)c1ccccc1)CO2	0.005
CC(C)N([C@H]1COC2(CCN(C(=O)O[C@H](CO)C(F)(F)F)CC2)C1)S(=O)(=O)c1ccccc1	0.001

P. O=C(O[C@H](CO)C(F)(F)F)N1CCC(Oc2ccc(C(F)(F)F)cn2)CC1
Q. CC(C)CC(=O)N(C)[C@H]1COC2(CCN(C(=O)O[C@H](CO)C(F)(F)F)CC2)C1
R. CN(C1COC2(CCN(C(=O)O[C@H](CO)C(F)(F)F)CC2)C1)S(=O)(=O)c1cccc(F)c1 (single isomer, unassigned) [Example 108]
# sort list by recorded IC50, greatest to least Use the labels to give the ranking in the order requested.
Q, P, R

I. O=C(O[C@H](CO)C(F)(F)F)N1CCC2(CC1)CN(S(=O)(=O)NCc1ccccc1)CCO2
II. O=C(O[C@H](CO)C(F)(F)F)N1CCC2(CC1)CCN(S(=O)(=O)c1nccs1)C2
III. O=C(O[C@@H]([C@@H](O)C(F)(F)F)C(F)(F)F)N1C[C@@H]2[C@H](C1)[C@H]2c1ccn(-c2ccc(F)cc2)n1 (racemic)
IV. CN(C1COC2(CCN(C(=O)O[C@H](CO)C(F)(F)F)CC2)C1)S(=O)(=O)C1CCOCC1 (single isomer, unassigned) [Example 116]
V. CN(C1COC2(CCN(C(=O)O[C@H](CO)C(F)(F)F)CC2)C1)S(=O)(=O)c1ccc(F)cc1 (single isomer, unassigned) [Example 111]
Task for the reader: rank each entry by its IC50, from the minimum upward. Lab note: final answer is the ordered label list.
V, I, II, III, IV

A. CN([C@H]1COC2(CCN(C(=O)O[C@H](CO)C(F)(F)F)CC2)C1)S(=O)(=O)c1cnn(C)c1
B. CN(C1COC2(CCN(C(=O)O[C@H](CO)C(F)(F)F)CC2)C1)S(=O)(=O)C1CCC1 (mixture of isomers)
C. O=C(O[C@H](CO)C(F)(F)F)N1CCC2(CC1)CN(Cc1ccc(F)cc1)C(=O)O2
D. CC(C)c1cccc(S(=O)(=O)N2CCOC3(CCN(C(=O)O[C@H](CO)C(F)(F)F)CC3)C2)c1
Put the entries in order of IC50, starting with the largest number. Return the labels ranked in the requested order, please.
C, A, B, D

1. O=C(O[C@H](CO)C(F)(F)F)N1CCC2(CCCN(S(=O)(=O)c3ccc(F)cc3)C2)CC1
2. CN(C(=O)CC1CCC1)[C@H]1COC2(CCN(C(=O)O[C@H](CO)C(F)(F)F)CC2)C1
3. O=C(O[C@H](CO)C(F)(F)F)N1CCC2(CC1)CC(n1cccn1)CO2 (single isomer, unassigned) [Example 104]
4. O=C(O[C@H](CO)C(F)(F)F)N1CCC2(CC1)CC(Oc1ccccn1)CO2 (single isomer, unassigned) [Example 129]
Arrange items by their IC50 values in increasing order. Give the order by naming the labels one after another as requested.
2, 1, 3, 4
(2: 0.01 µM, 1: 0.017 µM, 3: 0.157 µM, 4: 0.474 µM)

---

# assayedSystem: human recombinant Monoacylglycerol Lipase (Homo sapiens, UniProt Q99685)
# Sequence (Q99685 1-303): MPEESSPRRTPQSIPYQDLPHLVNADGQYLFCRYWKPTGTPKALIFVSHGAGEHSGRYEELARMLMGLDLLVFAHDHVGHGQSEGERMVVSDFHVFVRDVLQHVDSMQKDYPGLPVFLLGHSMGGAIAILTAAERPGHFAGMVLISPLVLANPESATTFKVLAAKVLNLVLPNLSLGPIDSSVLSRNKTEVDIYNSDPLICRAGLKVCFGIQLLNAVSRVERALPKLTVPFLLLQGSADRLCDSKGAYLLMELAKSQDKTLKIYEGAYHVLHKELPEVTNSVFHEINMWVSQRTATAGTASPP
# assayNotes: MAGL inactivation, enzyme progress curves, kinact/KI
# Type: biochemical
# experimentalSetup: from enzyme progress curves, T = 0 min protocol; geometric mean of 2-4 determinations unless otherwise indicated
# Method: Assessment of MAGL inhibition utilizes human recombinant Monoacylglycerol Lipase and the fluorogenic substrate 7-hydroxycoumarinyl arachidonate (7-HCA, Biomol ST-502). […] The reaction was allowed to progress for 60 minutes, after which the plate was read at an Ex/Em of 340/465. […]
Measured MAGL kinact/KI of individual entries

molecule	assayedSystem	MAGL kinact/KI
O=C(O[C@H](CO)C(F)(F)F)N1CCC2(CC1)CCN(C(=O)c1ccccc1F)C2	human recombinant Monoacylglycerol Lipase (Homo sapiens, UniProt Q99685)	4933 1/s per M

// returns reported MAGL kinact/KI for input O=C(O[C@H](CO)C(F)(F)F)N1CCC2(CC1)C[C@H](NS(=O)(=O)c1ccccc1)CO2
6754 1/s per M

If you can, please state the reported MAGL kinact/KI value of CN(C1COC2(CCN(C(=O)O[C@H](CO)C(F)(F)F)CC2)C1)S(=O)(=O)c1cccc(F)c1 (single isomer, unassigned) [Example 108] .
15960 1/s per M

Quick one: MAGL kinact/KI for CC(c1ccc(F)cc1)N1CCOC2(CCN(C(=O)O[C@H](CO)C(F)(F)F)CC2)C1 (mixture of isomers) [Example 43] ?
3478 1/s per M

// provenance: patent US10723711B2
